assay: Interaction with the stable free radical DPPH (reducing activity); conditions: 100 μM, 20 min
So basically: is Interaction with the Free Radical DPPH (%) under 6%? Then satisfied. Not under? Then not satisfied.

# compound, assigned-label
data = [
    ("CCn1c(=O)c(C(=O)NCCNC(=O)c2ccccc2)c(O)c2ccccc21 [Compound 11c]", "satisfied"),
    ("O=C(NCCc1ccc(O)cc1)c1c(O)c2ccccc2n(-c2ccccc2)c1=O [Compound 3n]", "not satisfied"),
    ("O=C(Nc1ccc(O)cc1)c1c(O)c2ccccc2n(-c2ccccc2)c1=O [Compound 3g]", "not satisfied"),
    ("Cn1c(=O)c(C(=O)Nc2ccccc2O)c(O)c2ccccc21 [Compound 3j]", "not satisfied"),
    ("Cc1ccc(NC(=O)c2c(O)c3ccccc3n(C)c2=O)cc1 [Compound 3l]", "satisfied"),
    ("CCCNC(=O)c1c(O)c2ccccc2n(-c2ccccc2)c1=O [Compound 3b]", "satisfied"),
    ("CCn1c(=O)c(C(=O)NCCNC(=O)/C=C/c2ccc(OC(C)=O)cc2)c(O)c2ccccc21 [Compound 11d]", "satisfied"),
    ("Cn1c(=O)c(C(=O)Nc2ccc(O)cc2)c(O)c2ccccc21 [Compound 3f]", "not satisfied"),
    ("Cn1c(=O)c(NC(=O)c2ccccc2O)c(O)c2ccccc21 [Compound 16c]", "not satisfied"),
    ("Cn1c(=O)c(C(=O)Nc2ccncc2)c(O)c2ccccc21 [Compound 3t]", "not satisfied"),
    ("Cn1c(=O)c(C(=O)Nc2ccc(F)cc2)c(O)c2ccccc21 [Compound 3m]", "satisfied"),
    ("O=C(NCCO)c1c(O)c2ccccc2n(-c2ccccc2)c1=O [Compound 3d]", "not satisfied"),
    ("Cc1ccccc1NC(=O)c1c(O)c2ccccc2n(C)c1=O [Compound 3k]", "satisfied"),
    ("CCn1c(=O)c(C(=O)NCCNC(=O)/C=C/c2ccc(OC)cc2)c(O)c2ccccc21 [Compound 11f]", "satisfied"),
    ("O=C(Nc1ccc(F)cc1)c1c(O)c2ccccc2n(-c2ccccc2)c1=O [Compound 3s]", "not satisfied"),
    ("Cc1ccc(C(=O)Nc2c(O)c3ccccc3n(C)c2=O)cc1 [Compound 16b]", "not satisfied"),
    ("CCn1c(=O)c(C(=O)NCCNC(=O)c2cc(OC)c(OC(C)=O)c(OC)c2)c(O)c2ccccc21 [Compound 11b]", "satisfied"),
    ("Cn1c(=O)c(C(=O)NCCc2ccc(O)cc2)c(O)c2ccccc21 [Compound 3o]", "not satisfied"),
    ("CCCC(=O)Nc1c(O)c2ccccc2n(C)c1=O [Compound 16a]", "not satisfied"),
]
